molecular target: Histone deacetylase 4/Myocyte-specific enhancer factor 2D (Homo sapiens, UniProt P56524+Q14814); assay: Inhibitory Effects of the Compounds on MEF2D and HDAC4 Protein Interactions: Detection of MEF2D and HDAC4 interactions. In this mammalian two-hybrid assay, HDAC4 and MEF2D proteins were used. […] Human epithelial carcinoma cells (HeLa) were co-transfected with the two DNA constructs (GAL4-MEF2D and HDAC4-VP16) and a reporter plasmid (Gal4Luc). […] MEF2D and HDAC4 protein interactions were detected as a result of the GAL4-MEF2D and HDAC4-VP16 protein complex binding a DNA promoter on the reporter plasmid (Gal4Luc) and driving cellular expression of a luciferase gene. The measured luciferase protein signal was proportional to the amount of MEF2D and HDAC4 protein interactions occurring with the cell.
Sequence (P56524 whole entry, the tested form may be a part): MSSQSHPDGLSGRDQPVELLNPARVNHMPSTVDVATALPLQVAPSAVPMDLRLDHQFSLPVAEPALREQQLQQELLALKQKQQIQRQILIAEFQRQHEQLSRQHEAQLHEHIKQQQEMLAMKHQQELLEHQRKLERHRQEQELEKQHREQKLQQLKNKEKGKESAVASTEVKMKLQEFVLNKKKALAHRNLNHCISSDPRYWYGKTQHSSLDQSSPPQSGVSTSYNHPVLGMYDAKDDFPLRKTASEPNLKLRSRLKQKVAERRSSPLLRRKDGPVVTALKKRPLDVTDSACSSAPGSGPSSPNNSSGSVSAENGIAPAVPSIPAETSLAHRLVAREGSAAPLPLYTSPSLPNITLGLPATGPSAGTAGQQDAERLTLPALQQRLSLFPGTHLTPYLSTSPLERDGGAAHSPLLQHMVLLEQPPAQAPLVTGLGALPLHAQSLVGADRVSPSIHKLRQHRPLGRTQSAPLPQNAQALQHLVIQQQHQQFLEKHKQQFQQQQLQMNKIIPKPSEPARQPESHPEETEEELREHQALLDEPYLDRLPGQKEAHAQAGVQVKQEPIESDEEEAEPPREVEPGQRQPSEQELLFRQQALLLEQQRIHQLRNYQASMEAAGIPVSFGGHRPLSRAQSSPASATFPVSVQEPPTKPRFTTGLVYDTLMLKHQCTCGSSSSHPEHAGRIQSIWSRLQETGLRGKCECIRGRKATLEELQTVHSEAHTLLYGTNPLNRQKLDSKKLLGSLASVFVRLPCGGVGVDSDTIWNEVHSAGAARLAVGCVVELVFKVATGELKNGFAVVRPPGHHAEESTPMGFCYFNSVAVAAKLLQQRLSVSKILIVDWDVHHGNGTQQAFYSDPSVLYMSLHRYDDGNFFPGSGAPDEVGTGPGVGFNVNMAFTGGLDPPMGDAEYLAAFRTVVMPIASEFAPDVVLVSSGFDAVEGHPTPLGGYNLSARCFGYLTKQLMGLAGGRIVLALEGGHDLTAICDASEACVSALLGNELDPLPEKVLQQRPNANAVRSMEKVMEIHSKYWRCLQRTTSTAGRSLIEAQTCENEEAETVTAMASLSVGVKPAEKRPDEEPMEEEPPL
Sequence (Q14814 whole entry, the tested form may be a part): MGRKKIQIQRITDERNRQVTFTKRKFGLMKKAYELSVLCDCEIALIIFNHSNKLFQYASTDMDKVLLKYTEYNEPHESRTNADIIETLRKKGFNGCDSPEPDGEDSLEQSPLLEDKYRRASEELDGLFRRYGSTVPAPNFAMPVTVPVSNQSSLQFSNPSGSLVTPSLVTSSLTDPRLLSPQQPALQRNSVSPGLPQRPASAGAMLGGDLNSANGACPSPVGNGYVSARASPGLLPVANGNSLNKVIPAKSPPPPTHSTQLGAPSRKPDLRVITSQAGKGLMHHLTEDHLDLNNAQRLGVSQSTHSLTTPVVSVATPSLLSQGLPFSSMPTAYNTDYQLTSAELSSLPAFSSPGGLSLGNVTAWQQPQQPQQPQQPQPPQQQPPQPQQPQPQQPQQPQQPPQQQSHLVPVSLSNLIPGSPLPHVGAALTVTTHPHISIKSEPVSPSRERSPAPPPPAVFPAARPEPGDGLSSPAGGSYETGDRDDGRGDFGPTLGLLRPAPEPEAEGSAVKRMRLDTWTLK
pIC50: −log10 of the molar value.
List of pIC50 values.

{"compound": "Nc1ccccc1NC(=O)/C=C/c1cccc(CNc2ccc3ccccc3c2)c1", "pIC50": 5.14}
{"compound": "Cc1[nH]c2ccccc2c1CCNCc1cccc(/C=C/C(=O)Nc2ccccc2N)c1", "pIC50": 6.29}
{"compound": "Nc1ccccc1NC(=O)CCCCC(NC(=O)c1ccccc1)C(=O)Nc1ccccc1 (stereo not drawn)", "pIC50": 6.10}
